meta.source: the RNAGym collection of RNA variant scans (doi:10.1073/pnas.2313332121)

B1: TPR t1 (parent)
chain: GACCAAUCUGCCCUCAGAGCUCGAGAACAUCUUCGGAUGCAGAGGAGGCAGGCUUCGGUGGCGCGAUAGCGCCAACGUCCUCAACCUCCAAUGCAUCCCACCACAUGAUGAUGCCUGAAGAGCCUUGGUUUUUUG

Variants of: B1
PROTOCOL_SUMMARY: polymerase ribozyme fitness, log enrichment relative to wild type (log ratio); higher = more active; in vitro selection for triplet polymerase activity
Attribute: polymerase ribozyme fitness (log ratio)
MEASURED_PARAMETER: polymerase ribozyme fitness (log ratio)

A5C G17U G120A :: -3.4
C11A A18U U21A C56U :: -3.04
C85A A95C :: -2.61
C76U C88A :: -1.29
C8G A108G :: -0.714
G52C G69U C97A :: -2.26
C40U U92C :: -1.86
A6U A37U U112A U130A :: 0.657
A16G G44A C97G U112C U133A :: -4.45
C34G C53U C73U G113C C114G :: -8.55
A37U A46U C64U C115A :: -3.03
C3G C11G G19U G63A G120A :: -5.7
U9G C104U :: 0.944
G19U A46C :: -3.44
A5U C115U :: -1.6
C4G U21C G45A U78A C124G :: 0.886
